- Test system: Pseudomonas aeruginosa
- method-summary: Antibacterial activity against Pseudomonas aeruginosa 13-17 assessed as inhibition of bacterial growth incubated for 18 hrs by agar dilution method
- Assay type: functional
quantity-name: MIC (µg/mL)
Numbers only, in µg/mL.

The examples below pair each entry with its known result.
>>> result("C[C@@H](O)[C@H]1C(=O)N2C(C(=O)O)=C(SCCNC=N)C[C@H]12 [IMIPENEM ANHYDROUS]")
32
>>> result("C[C@H]1[C@H](NC(=O)/C(=N\\OC(C)(C)C(=O)O)c2csc(N)n2)C(=O)N1S(=O)(=O)O")
64
>>> result("CC(C)(O/N=C(\\C(=O)N[C@@H]1C(=O)N2C(C(=O)[O-])=C(C[n+]3ccccc3)CS[C@H]12)c1csc(N)n1)C(=O)O")
64
>>> result("NCCC[C@H](NC(=O)C[C@@H](N)Cc1ccccc1)C(=O)Nc1ccc2ccccc2c1")
512

Now consider the entry below.
Input line: Request body: readout MIC, system Pseudomonas aeruginosa, query `C[C@@H](O)[C@H]1C(=O)N2C(C(=O)O)=C(S[C@@H]3CN[C@H](C(=O)N(C)C)C3)[C@H](C)[C@H]12` . Return the value.
Output line: 32

----------
Give MIC for every item shown.
- Tested on: Pseudomonas aeruginosa
- method-summary: Antibacterial activity against Pseudomonas aeruginosa PAO1 assessed as inhibition of bacterial growth incubated for 18 hrs by agar dilution method
- Format: functional
Give bare numbers, in mg/L.

List MIC for every entry below, keeping the order given.
1. C[C@H]1[C@H](NC(=O)/C(=N\OC(C)(C)C(=O)N2CCC[C@@H]2C(=O)O)c2csc(N)n2)C(=O)N1S(=O)(=O)O
2. C#CCO/N=C(\C(=O)N[C@@H]1C(=O)N(S(=O)(=O)O)[C@H]1C)c1nsc(N)n1
3. NCCC[C@H](NC(=O)C[C@@H](N)Cc1ccccc1)C(=O)Nc1ccc2ccccc2c1

Output line:
1: 8; 2: 16; 3: 512

List MIC for every entry below, keeping the order given.
1. CC(C)[C@H](O/N=C(\C(=O)N[C@@H]1C(=O)N(OS(=O)(=O)O)C1(C)C)c1csc(N)n1)C(=O)O
2. C[C@@H](O/N=C(\C(=O)N[C@@H]1C(=O)N(OS(=O)(=O)O)C1(C)C)c1csc(N)n1)C(=O)O

Output line:
1: 4; 2: 64

----------
Give MIC for every item shown.
- Tested on: Pseudomonas aeruginosa
- method-summary: Synergistic antibacterial activity against Pseudomonas aeruginosa PAO1 assessed as aztreonam MIC upto […] ug/ml incubated for 18 hrs by checkerboard method (reference value: 8 microg/ml)
- Format: functional
Give bare numbers, in µg/mL.

The examples below pair each entry with its known result.
>>> result("NCCC[C@H](NC(=O)Cc1ccc2ccccc2c1)C(=O)N[C@@H](Cc1ccccc1)C(=O)O")
8
>>> result("NCCC[C@H](NC(=O)c1ccc2ccccc2c1)C(=O)N[C@@H](Cc1ccccc1)C(N)=O")
8
>>> result("COc1ccc(CCC(=O)N[C@@H](CCCN)C(=O)Nc2ccc3ccccc3c2)cc1")
8
>>> result("COC(=O)[C@H](Cc1ccccc1)NC(=O)[C@H](CCCN)NC(=O)c1ccc2ccccc2c1")
8
>>> result("NCCC[C@H](NC(=O)CCc1ccc([N+](=O)[O-])cc1)C(=O)Nc1ccc2ccccc2c1")
8
>>> result("NCCC[C@H](NC(=O)CCc1ccc(C(F)(F)F)cc1)C(=O)Nc1ccc2ccccc2c1")
8
>>> result("NCCC[C@H](NC(=O)CCc1ccc(Cl)cc1)C(=O)Nc1ccc2ccccc2c1")
8
>>> result("NCCC[C@H](NC(=O)C[C@H](N)c1ccccc1)C(=O)Nc1ccc2ccccc2c1")
8

Now consider the entry below.
Input line: Request body: readout MIC, system Pseudomonas aeruginosa, query `NCCC[C@H](NC(=O)CCc1ccccc1)C(=O)Nc1ccc2ccccc2c1` . Return the value.
Output line: 2

The reported numbers originate from ChEMBL document CHEMBL5625252.
